# Tested on: RXF 393
# EXPERIMENT SUMMARY: NCI tumour cell line growth inhibition, 48 h
The source made the active and inactive calls. No stated cut-off is given here; in the data, active = GI50 up to about 1.1 µM and inactive = higher.
Hi! Could you answer with just one of these? T = active, F = inactive

Solved cases below.
{"MOLECULE": "CN(Cc1cnc2c(n1)C(N)=NN(N)N2)c1ccc(C(=O)NC(CCP(=O)(O)O)C(=O)O)cc1 (stereo unspecified)", "ASSAYED SYSTEM": "RXF 393", "GROUP LABEL": "F"}
{"MOLECULE": "O=C1C=CC(=O)c2ncccc21", "ASSAYED SYSTEM": "RXF 393", "GROUP LABEL": "F"}
{"MOLECULE": "CC12CCCCC1=C(F)C(F)(F)S2 (stereo unspecified)", "ASSAYED SYSTEM": "RXF 393", "GROUP LABEL": "F"}

Query: Hi, do you know how CC(=O)Nc1n[n+]([O-])c2cc(C)ccc2[n+]1[O-] came out in this test?
Reply: F

Query: Please share the test call associated with NS(=O)(=O)c1ccc(NC(=O)N/N=C/c2ccccc2[N+](=O)[O-])cc1 .
Reply: F

Query: Could you please tell me the result logged for CCN1C(=O)C/C(=C\C(C)=O)Nc2ccccc21 in this assay?
Reply: F

Query: Returns: the outcome recorded for O=C(CSc1nnc(-c2ccc(/N=C\c3ccc(Cl)cc3)cc2)o1)Nc1cccc(Cl)c1 in this assay.
Reply: F

Query: Outcome? Cc1ccc(NC(Nc2ccc(C)cc2C)=C(/C=C(\Cl)[N+](=O)[O-])[N+](=O)[O-])c(C)c1
Reply: F

Query: Just curious, what result did O[C@H]1[C@H](O)[C@@H](O)CN2CC[C@H](O)[C@H]12 [CASTANOSPERMINE] get here?
Reply: F

Query: Record request — test call for Nc1ccc2c(c1)NCCN2
Reply: F

Query: Hey, what did the test say about CC(=O)OC(C)(C)/C=C/C(=O)[C@](C)(O)[C@H]1[C@H](O)C[C@@]2(C)[C@@H]3CC=C4[C@@H](C[C@H](O)C(=O)C4(C)C)[C@]3(C)C(=O)C[C@]12C ?
Reply: T

* * *

# Tested on: KM12
# EXPERIMENT SUMMARY: NCI tumour cell line growth inhibition, 48 h
Activity calls are given as the source filed them. Cut-off read from the data, not from the text of the source: active = GI50 up to about 1.1 µM and inactive = higher.
MEASUREMENT TYPE: GI50

Check out these entries, answers already filled in.
{"MOLECULE": "CCCCCCCCCN1CCC(=O)C(C(=O)OC)C1 (stereo not drawn)", "GI50": "3.08 µM (inactive)"}
{"MOLECULE": "CCOC(=O)c1cc2c([nH]1)C(=O)CC1=C2CCN1Cc1ccccc1", "GI50": "17.6 µM (inactive)"}

Okay, now this molecule:
Query: What measured GI50 goes with CCOC(CN(C)C(=O)OCC(Cl)(Cl)Cl)OCC ?
Reply: > 100 µM (inactive)

* * *

GI50 reference
# System: SF-268
# EXPERIMENT SUMMARY: NCI tumour cell line growth inhibition, 48 h
Active and inactive are the calls of the source. Cut-off read from the data, not from the text of the source: active = GI50 up to about 1.1 µM and inactive = higher.

// worked examples, GI50 included
{"COMPOUND": "COc1cc2c(cc1OCCCOc1cc3c(cc1OC)C(=O)N1CCC[C@H]1C(=O)N3)N=C[C@@H]1CCCN1C2=O", "ASSAYED SYSTEM": "SF-268", "READOUT VALUE": "4.82 µM (inactive)"}
{"COMPOUND": "CC(=O)Nc1ccccc1C=C1c2ccccc2-c2ccccc21", "ASSAYED SYSTEM": "SF-268", "READOUT VALUE": "> 100 µM (inactive)"}
{"COMPOUND": "S=C(Nc1ccccc1)N(/N=C/C=C/c1ccccc1)c1nnc(-c2ccccc2)c(-c2ccccc2)n1", "ASSAYED SYSTEM": "SF-268", "READOUT VALUE": "30.5 µM (inactive)"}
{"COMPOUND": "Cc1ccccc1N1C(=O)/C(=C/c2ccc(N(CCC#N)CCC#N)cc2)N=C1c1cc([N+](=O)[O-])ccc1Cl", "ASSAYED SYSTEM": "SF-268", "READOUT VALUE": "> 100 µM (inactive)"}
{"COMPOUND": "O=C(O)CN(c1ccccc1)S(=O)(=O)c1ccc(Cl)cc1", "ASSAYED SYSTEM": "SF-268", "READOUT VALUE": "> 100 µM (inactive)"}

Query: So what's the measured GI50 for this one? Cc1ccc(NC(Nc2ccc(C)cc2C)=C(/C=C(\Cl)[N+](=O)[O-])[N+](=O)[O-])c(C)c1
Reply: 4.82 µM (inactive)

Query: What value of GI50 has been reported for the following compound? C1=C(c2ccccc2)C(N2CCOCC2)Oc2ccccc21 (stereo not drawn)
Reply: > 100 µM (inactive)

Query: Any idea what its GI50 is? The compound is CCOC(=O)c1ccc(/N=C/C=C(\Nc2ccc(C(=O)OCC)cc2)c2ccc3ccccc3c2)cc1
Reply: 42.1 µM (inactive)

Query: Given the compound COC(=O)C(Cc1ccccc1)NS(=O)(=O)c1ccc(-c2c3nc(c(-c4ccc(S(=O)(=O)NC(Cc5ccccc5)C(=O)OC)cc4)c4ccc([nH]4)c(-c4ccc(S(=O)(=O)NC(Cc5ccccc5)C(=O)OC)cc4)c4nc(c(-c5ccc(S(=O)(=O)NC(Cc6ccccc6)C(=O)OC)cc5)c5ccc2[nH]5)C=C4)C=C3)cc1 (stereo not drawn) , what is its reported GI50?
Reply: > 100 µM (inactive)

Query: Endpoint output: GI50 of CC(C)(C)OCC1NC(=O)[C@@H]2Cc3c([nH]c4ccccc34)C(c3ccccc3)N2C1=O (stereo partly drawn) . Value?
Reply: > 50 µM (inactive)

Query: Quick one: GI50 for Cc1c(Cl)c(C)c(Cl)c(O)c1Cl ?
Reply: 26.7 µM (inactive)
